# TARGET_OR_TEST_SYSTEM: T1, full-length spike protein of SARS-CoV-2 (Wuhan strain) (SARS-CoV-2 (Wuhan strain), UniProt P0DTC2 14-1273)
# T1 construct: whole, on cells; Expressed in 293T cells
# PROCEDURE_SUMMARY: ACE2 competition, spike on 293T cells, antibody 4 µg/mL
Please note: Met applies when binding amount (%) of ACE2 protein is 4% or greater, and Not met applies otherwise.

Some solved entries appear below for comparison.
| BINDER | CATEGORY_LABEL |
| --- | --- |
| Ab445 (antibody, V domains shown) VH: EVQLVESGGGVVQPGTSPRLSCAASGFTFSNSGMHWVRQAPGKGLEWVAVIWYDGSKKYYVDSVKGRFTISRDNSKNTLYLQMNSLRAEDTAVYYCARDGTVAVRGVMNPFFDYWGQGTLVTVSS VL: DIQLTQSPSSLSASVGDRVTITCQASQDISNYLNWYQQIPGKAPKLLIYDASNLETGVPSRFSGSGSGTDFTFTISSLQPEDIATYYCQQYDNLPYTFGQGTKLEIK | Not met |
| Ab354 (antibody, V domains shown) VH: QVQLVQSGAEVKKPGASVTVSCKASGFLFTGYYMHWVRQAPGQGLEWMGWINPNSGASNYTRKFQGRVTMTRDTSISATYMKLSRLTSDDTAVYYCARDLAFSMVRGALDYWGQGTLVTVSS VL: QLVLTQPPSASGSPGQSVTISCTGTSSDVGGYNYVSWYQHHPGKAPKLMIYEVSKRPSGVPDRFSGSKSGNTASLTVSGLQAEDEADYYCNSYAGNNNWVFGTGTKVTVL | Not met |
| Ab712 (antibody, V domains shown) VH: QVQLVQSGSELKKPGASVKISCKASGYTFINHAINWVRQAPGQGLEWMGWINTNTGNPTYAPGFTGRFVFSLDTSVSTAYLQISSLKAEDTAVYYCARIPIRDYDYDGSGYYYFLDYWGQGTLVTVSS VL: SYELTQDPAVSVALGQTVRITCQGDSLRSSSASWYQQKPGQAPVLVIYGKTNRPSGIPDRFSGSSSGNTASLTITGAQAEDEADYYCNSRDNSGNHPVVFGGGTKLTVL | Met |
| Ab302 (antibody, V domains shown) VH: EVQLVESGGGLVQPGGSLRLSCAASGVIVSRNYMTWVRQAPGKGLEWVSVIYSGGSTFYADSVKGRFTISRDNSKNTLYLQMNSLRAEDTAVYYCARDRGEDVFDIWGQGTMVTVSS VL: DIQLTQSPSSLSASVGDRVTITCRASQGISSYLAWYQQKPGKAPKLLIYAASTLQSGVPSRFSGSGSGTDFTLTISSLQPEDFATYYCQQLNSYPGYTFGQGTKLEIK | Met |
| Ab176 (antibody, V domains shown) VH: EVQLVESGGGLVQPGGSLRLSCAASGFTFSSYSMNWVRQAPGKGLEWVSYISGSSSTIYYADSVKGRFTISRDNAKNSLYLQMNSLRAEDTAVYYCVSSEWLLPRFFDYWGQGTLVTVSS VL: QPVLTQEASVSGTVGQKVTLSCTGNRNNIGSYPVGWYQQISHGAPKTVMFGNSPPSGIPDRFFGSRSGTTASLTISGLQPEDEADYYCSTWDYSLSAVVFGGGTKLTVL | Met |

Consider the record given below.
# check: binding amount (%) of ACE2 protein of Ab864 (antibody, V domains shown) VH: EVQLVESGGGLVQPGRSLRLSCAASGFTFDDYAMHWVRQVPGKGLEWVSGISWNKGNIDYADSVKGRFTISRDNAKNSLYLQMNSLRPEDTGLYYCAKDCHYDSPGYFPNCLHSWGQGTLVTVSS VL: EIVMTQSPSSLSASVGDRVTITCRASQGINTYLAWYQQKPGKAPKLLIYTASTLQSGVPSRFSGSGSGTDFTLTISSLQPEDFATYYCQQVHSYPLTFGGGTKVEIK is greater than or equal to 4%
Not met
